- assay-summary: Lipophilicity assessed as capacity factor logK of the compound by HPLC method
- Assay type: physicochemical
Please mark satisfied if the recorded log K is equal to or greater than 0.8, and not satisfied if it falls below.

Please review the following examples before continuing.
> print(dat)
                                     smiles          class
1        Cc1cccc(NC(=O)c2ccc3cccc(O)c3n2)c1      satisfied
2        O=C(Nc1cccc(F)c1)c1ccc2cccc(O)c2n1      satisfied
3  O=C(Nc1cccc(C(F)(F)F)c1)c1ccc2cccc(O)c2n1      satisfied
4       COc1ccc(NC(=O)c2ccc3cccc(O)c3n2)cc1  not satisfied
5  O=C(Nc1ccc([N+](=O)[O-])cc1)c1ccc2cccc(O)c2n1      satisfied

Entry O=C(Nc1ccccc1C(F)(F)F)c1ccc2cccc(O)c2n1 : is its log K no less than 0.8?
satisfied

And then O=C(Nc1ccccc1F)c1ccc2cccc(O)c2n1 , what is it?
not satisfied

And then O=C(Nc1ccc(F)cc1)c1ccc2cccc(O)c2n1 , what is it?
satisfied

And then O=C(Nc1ccc(Br)cc1)c1ccc2cccc(O)c2n1 , what is it?
satisfied

And then O=C(Nc1ccccc1)c1ccc2cccc(O)c2n1 , what is it?
not satisfied
